Where these numbers come from: patent US12495798B2

tested on: rice; test: Phytotoxicity test for field crops (soil treatment test); type: in vivo; settings: 50 g ai/ha; Rice (10 days after treatment)
readout-type: Soil treatment phytotoxicity, Rice

{"compound": "Cn1nnc(COCc2nc(C(F)(F)F)ccc2C(=O)Nc2nnnn2C)n1", "obs-value": 6}
{"compound": "Cn1nnc(COCc2nc(C(F)(F)F)ccc2C(=O)N(c2nnnn2C)S(C)(=O)=O)n1", "obs-value": 7}
{"compound": "Cn1nnc(CSCc2nc(C(F)F)ccc2C(=O)Nc2nnnn2C)n1", "obs-value": 0}
{"compound": "Cn1nnc(COCc2nc(C(F)F)ccc2C(=O)Nc2nnnn2C)n1", "obs-value": 5}
{"compound": "Cn1nnnc1COc1nc(C(F)(F)F)ccc1C(=O)Nc1nnnn1C", "obs-value": 1}
{"compound": "Cn1nnnc1COc1nc(C(F)(F)F)ccc1C(=S)Nc1nnnn1C", "obs-value": 5}
{"compound": "Cn1nc(COCc2nc(C(F)(F)F)ccc2C(=O)Nc2nnnn2C)nc1Cl", "obs-value": 6}
{"compound": "Cn1nnc(COCc2nc(C(F)(F)C(F)(F)F)ccc2C(=O)Nc2nnnn2C)n1", "obs-value": 6}
